experiment: Stability investigation of crystal forms A, B, C, D and the amorphous form of the compound of formula (1) (related substances by HPLC, moisture, XRD, DSC); assay type: physicochemical; conditions: 25° C., RH 92.5%, opened, 10 days
MEASURE NAME: DSC (°C)

MOLECULE	UNIT SYMBOL	DSC
C[C@H]1CCN1c1nc(N2C[C@@H]3[C@@H](CC(=O)O)[C@@H]3C2)c2c(n1)C(F)(F)CC2 [Crystal form C]	°C	172.35
C[C@H]1CCN1c1nc(N2C[C@@H]3[C@@H](CC(=O)O)[C@@H]3C2)c2c(n1)C(F)(F)CC2 [Crystal form B]	°C	169.31
C[C@H]1CCN1c1nc(N2C[C@@H]3[C@@H](CC(=O)O)[C@@H]3C2)c2c(n1)C(F)(F)CC2 [Crystal form A]	°C	170.23
C[C@H]1CCN1c1nc(N2C[C@@H]3[C@@H](CC(=O)O)[C@@H]3C2)c2c(n1)C(F)(F)CC2 [Crystal form D]	°C	167.51
